- test.target: T1, human MMP-2 (Biomol #SE-237) (human, UniProt P08253 110-452, limits assumed)
- T1 construct: also called hMMP-2
- T1 sequence (P08253 110-452 limits assumed): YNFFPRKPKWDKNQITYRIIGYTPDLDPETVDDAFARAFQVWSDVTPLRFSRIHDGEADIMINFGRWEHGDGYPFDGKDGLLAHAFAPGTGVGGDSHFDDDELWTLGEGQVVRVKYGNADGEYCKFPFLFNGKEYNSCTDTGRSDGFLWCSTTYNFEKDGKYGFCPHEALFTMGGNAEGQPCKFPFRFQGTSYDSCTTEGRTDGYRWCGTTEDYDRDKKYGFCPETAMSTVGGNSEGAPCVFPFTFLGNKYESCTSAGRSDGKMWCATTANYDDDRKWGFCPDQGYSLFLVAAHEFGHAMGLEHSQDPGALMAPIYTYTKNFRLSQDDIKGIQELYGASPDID
- procedure.summary: Ki,app, enzyme inhibition assay (fluorogenic peptide substrate), IgG
Measured Ki, listed per entry for reference.
Respond with the bare value in nM.

For orientation, consider the following solved cases.
• 539A-M0237-D02 hIgG1 (antibody, V domains shown, Tested as human IgG1 (parental); also called M237-D02; DL8) VH: EVQLLESGGGLVQPGGSLRLSCAASGFTFSQYPMWWVRQAPGKGLEWVSYIVPSGGRTYYADSVKGRFTISRDNSKNTLYLQMNSLRAEDTAVYYCAKDRAYGDYVGWNGFDYWGQGTLVTVSS VL: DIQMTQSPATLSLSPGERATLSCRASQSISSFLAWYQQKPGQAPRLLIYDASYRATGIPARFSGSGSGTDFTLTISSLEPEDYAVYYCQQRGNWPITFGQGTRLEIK = 17
• X0106-E04 (antibody, V domains shown, Produced and tested as IgG1; germlined, optimized version of M0275-D03; also called X0106-E4) VH: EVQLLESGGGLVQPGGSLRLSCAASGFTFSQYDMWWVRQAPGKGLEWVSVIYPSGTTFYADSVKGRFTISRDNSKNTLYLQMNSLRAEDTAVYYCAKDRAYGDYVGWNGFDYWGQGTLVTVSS VL: EIVLTQSPATLSLSPGERATLSCRASQSISSFLAWYQQKPGQAPRLLIYDASYRATGIPARFSGSGSGTDFTLTISSLEPEDFAVYYCQQRGNWPITFGQGTRLEIK = 0.38

Turning now to a further binder:
Any idea what its Ki is? The binder is X0106-B02 (antibody, V domains shown, Produced and tested as IgG1; germlined, optimized version of M0276-F11) VH: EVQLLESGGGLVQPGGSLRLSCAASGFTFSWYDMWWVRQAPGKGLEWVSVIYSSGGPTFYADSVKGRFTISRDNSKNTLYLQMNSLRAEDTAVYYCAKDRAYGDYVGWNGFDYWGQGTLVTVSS VL: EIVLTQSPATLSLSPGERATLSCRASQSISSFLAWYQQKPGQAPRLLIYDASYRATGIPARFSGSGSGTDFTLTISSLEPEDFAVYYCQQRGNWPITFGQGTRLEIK
0.31
